# maps each entry to its IC50
Assay system: SHP2 (Homo sapiens)
Sequence (Q06124 whole entry): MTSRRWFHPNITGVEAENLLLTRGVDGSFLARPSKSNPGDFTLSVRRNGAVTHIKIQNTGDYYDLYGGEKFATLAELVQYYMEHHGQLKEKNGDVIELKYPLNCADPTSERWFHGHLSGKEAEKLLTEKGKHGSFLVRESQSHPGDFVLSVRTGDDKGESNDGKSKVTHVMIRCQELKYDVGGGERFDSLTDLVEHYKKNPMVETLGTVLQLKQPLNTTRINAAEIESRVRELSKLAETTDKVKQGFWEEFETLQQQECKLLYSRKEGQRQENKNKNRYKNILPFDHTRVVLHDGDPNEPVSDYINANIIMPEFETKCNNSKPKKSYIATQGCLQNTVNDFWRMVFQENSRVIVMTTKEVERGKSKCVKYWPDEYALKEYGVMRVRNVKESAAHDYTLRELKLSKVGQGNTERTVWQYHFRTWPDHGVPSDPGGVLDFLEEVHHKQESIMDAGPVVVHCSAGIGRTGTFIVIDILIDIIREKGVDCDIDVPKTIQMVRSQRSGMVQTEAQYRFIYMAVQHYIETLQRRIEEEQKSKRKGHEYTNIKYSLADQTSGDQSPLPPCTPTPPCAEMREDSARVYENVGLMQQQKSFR
Test description: SHP2 allosteric inhibitor enzyme activity assay (DiFMUP fluorescence)
Type: biochemical
Applied conditions: class symbols

C[C@@H]1OCC2(CCN(c3nc4[nH]nc(C5(c6nc7ccccc7o6)CC5)c4c(=O)[nH]3)CC2)[C@@H]1N = 20 to 60 nM
N[C@@H]1c2ccccc2CC12CCN(c1nc3[nH]nc(C4(c5ccnc(C(F)(F)F)c5)CC4)c3c(=O)[nH]1)CC2 = ≤ 20 nM
N[C@@H]1c2cccnc2CC12CCN(c1nc3[nH]nc(C4(c5ccccc5)CC4)c3c(=O)[nH]1)CC2 = ≤ 20 nM

-- ask Identify measured IC50 corresponding to N[C@@H]1c2nc(Cl)sc2CC12CCN(c1nc3[nH]nc(C4(c5ccccc5)CC4)c3c(=O)[nH]1)CC2
-- reply ≤ 20 nM

-- ask Identify measured IC50 corresponding to Cc1snnc1C1(c2n[nH]c3nc(N4CCC5(CC4)Cc4ccccc4[C@H]5N)[nH]c(=O)c23)CC1
-- reply ≤ 20 nM

-- ask Identify measured IC50 corresponding to C[C@@H]1OCC2(CCN(c3nc4[nH]nc(C5(c6ccc(N)cc6)CC5)c4c(=O)[nH]3)CC2)[C@@H]1N
-- reply 20 to 60 nM

// provenance: patent US20230192705A1
